System: Rattus norvegicus
Method Summary: Antipyretic activity in albino rat assessed as yeast-induced pyrexia at 10 mg/kg, po measured at 2 hrs by telethermometer (reference value: 38.20 degC)
Format: functional
Endpoint: T (°C)
One number for each entry, in °C.

>  <Mol Smiles>
CCN1CCN(Cn2nc(Cc3ccccc3Nc3c(Cl)cccc3Cl)oc2=S)CC1

>  <Reading Unit>
°C

>  <T>
38.3

$$$$
>  <Mol Smiles>
S=c1oc(Cc2ccccc2Nc2c(Cl)cccc2Cl)nn1CNc1ccccc1Cl

>  <Reading Unit>
°C

>  <T>
37.77

$$$$
>  <Mol Smiles>
CN1CCN(Cn2nc(Cc3ccccc3Nc3c(Cl)cccc3Cl)oc2=S)CC1

>  <Reading Unit>
°C

>  <T>
37.94

$$$$

For each listed entry, give its T.
1. S=c1oc(Cc2ccccc2Nc2c(Cl)cccc2Cl)nn1CNC1CCCCC1
2. S=c1oc(Cc2ccccc2Nc2c(Cl)cccc2Cl)nn1CN1CCOCC1
3. S=c1oc(Cc2ccccc2Nc2c(Cl)cccc2Cl)nn1CNc1cccc(Cl)c1

Result:
1. 37.69
2. 37.55
3. 38.6

====

Tested on: Rattus norvegicus
Method Summary: Antipyretic activity in albino rat assessed as decrease in yeast-induced pyrexia by measuring temperature index at 10 mg/kg, po measured over 5 hrs by telethermometer (reference value: 1.04 degC)
Format: functional
Hi there, I'd appreciate the recorded T for every entry that follows.
Answers are plain numbers, in °C.

>  <Mol Smiles>
S=c1oc(Cc2ccccc2Nc2c(Cl)cccc2Cl)nn1CN1CCOCC1

>  <Tested System>
Rattus norvegicus

>  <Reading Unit>
°C

>  <Measured>
3.91

$$$$
>  <Mol Smiles>
S=c1oc(Cc2ccccc2Nc2c(Cl)cccc2Cl)nn1CNc1cccc(Cl)c1

>  <Tested System>
Rattus norvegicus

>  <Reading Unit>
°C

>  <Measured>
5.4

$$$$
>  <Mol Smiles>
CCN1CCN(Cn2nc(Cc3ccccc3Nc3c(Cl)cccc3Cl)oc2=S)CC1

>  <Tested System>
Rattus norvegicus

>  <Reading Unit>
°C

>  <Measured>
6.6

$$$$
>  <Mol Smiles>
S=c1oc(Cc2ccccc2Nc2c(Cl)cccc2Cl)nn1CNC1CCCCC1

>  <Tested System>
Rattus norvegicus

>  <Reading Unit>
°C

>  <Measured>
4.38

$$$$
>  <Mol Smiles>
S=c1oc(Cc2ccccc2Nc2c(Cl)cccc2Cl)nn1CNc1ccccc1Cl

>  <Tested System>
Rattus norvegicus

>  <Reading Unit>
°C

>  <Measured>
3.06

$$$$

Now consider a different molecule.
Noted for CN1CCN(Cn2nc(Cc3ccccc3Nc3c(Cl)cccc3Cl)oc2=S)CC1 : its T reads 2.81
